target: Protein Mdm4 (Homo sapiens) + E3 ubiquitin-protein ligase Mdm2 (Homo sapiens) (UniProt O15151+Q00987); assay: inhibitors of human Mdm2-MdmX association, primary screen, cell-based, luminescence, split luciferase, SaOS-2, uHTS (AID 485346); settings: SaOS-2 split-luciferase Mdm2/MdmX complementation, at 8 µM
Sequence (O15151 whole entry, looked up): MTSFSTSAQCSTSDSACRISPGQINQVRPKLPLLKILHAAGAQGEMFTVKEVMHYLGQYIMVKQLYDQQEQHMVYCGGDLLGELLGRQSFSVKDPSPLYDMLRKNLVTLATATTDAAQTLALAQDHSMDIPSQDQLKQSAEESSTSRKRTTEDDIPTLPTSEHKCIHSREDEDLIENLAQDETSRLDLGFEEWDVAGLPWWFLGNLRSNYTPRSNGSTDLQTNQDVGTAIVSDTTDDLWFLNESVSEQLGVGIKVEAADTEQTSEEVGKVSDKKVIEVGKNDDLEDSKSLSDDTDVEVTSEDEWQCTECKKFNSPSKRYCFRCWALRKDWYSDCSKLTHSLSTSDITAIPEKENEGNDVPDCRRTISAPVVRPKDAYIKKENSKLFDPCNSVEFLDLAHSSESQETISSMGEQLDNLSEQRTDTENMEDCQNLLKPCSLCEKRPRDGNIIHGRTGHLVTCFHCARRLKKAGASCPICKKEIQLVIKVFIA
Sequence (Q00987 whole entry, looked up): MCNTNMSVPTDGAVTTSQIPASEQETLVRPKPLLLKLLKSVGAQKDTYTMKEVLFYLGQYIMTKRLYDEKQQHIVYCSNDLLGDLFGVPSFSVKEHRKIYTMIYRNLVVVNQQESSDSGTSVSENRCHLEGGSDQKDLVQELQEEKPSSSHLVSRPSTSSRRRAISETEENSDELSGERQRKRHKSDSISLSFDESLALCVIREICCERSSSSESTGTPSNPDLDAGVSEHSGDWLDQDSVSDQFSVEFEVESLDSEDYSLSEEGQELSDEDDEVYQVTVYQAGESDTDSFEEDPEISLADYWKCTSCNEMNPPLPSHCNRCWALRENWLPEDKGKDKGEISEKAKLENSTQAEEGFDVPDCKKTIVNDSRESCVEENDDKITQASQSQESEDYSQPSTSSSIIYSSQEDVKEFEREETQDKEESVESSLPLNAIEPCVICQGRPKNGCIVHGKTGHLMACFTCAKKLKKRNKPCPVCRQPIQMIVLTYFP
The whole screen tested about 330,000 compounds, of which about 10,000 (3%) were called active.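 How the source made its calls: active means inhibition of at least 50% at 8 µM in the primary screen; inactive means the rest.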 For the sample, actives were picked, then their nearest neighbours and some compounds at random.
Outcome codes: Y for active, N for inactive

{"molecule": "COc1ccc(CN2CN(C(C)C)CSC2=S)cc1", "assignedLabel": "Y"}
{"molecule": "COc1ccc(/C=C/C(=O)c2ccc(NS(=O)(=O)c3ccc(C)cc3)cc2)cc1O", "assignedLabel": "Y"}
{"molecule": "CCN(CC)c1ccc(/C=N/Nc2nc(C)cc(C)n2)c(O)c1", "assignedLabel": "Y"}
{"molecule": "Cc1cccc(N(C)C(=O)c2cc3c(=O)[nH]c4ccc(C)cc4c3s2)c1", "assignedLabel": "Y"}
{"molecule": "Cc1ccccc1C(=O)N1CCN(c2ccc(NC(=O)c3cccs3)cc2)CC1", "assignedLabel": "Y"}
{"molecule": "COC(=O)Cc1ccc(OCC(=O)NC2CCCC2)cc1", "assignedLabel": "N"}
{"molecule": "CC(C)NC(=O)C(=O)NCCCOC(C)C", "assignedLabel": "N"}
{"molecule": "COc1ccc(-c2cc(C(=O)NCCCN3CCCC3=O)c3ccccc3n2)cc1OC", "assignedLabel": "N"}
{"molecule": "CCOC(=O)N1CCC(N2Cc3cccc(C(=O)Nc4c(C)cccc4CC)c3C2=O)CC1", "assignedLabel": "N"}
{"molecule": "CCCN(CCC)C(=S)Nc1cc(C(=O)OC)ccc1C(=O)OC", "assignedLabel": "N"}
{"molecule": "Cc1cccc(C(=O)N2CCCC(Nc3ccc(C(C)C)cc3)C2)n1 (centres undefined)", "assignedLabel": "N"}
{"molecule": "Cc1ccc(C(=O)/C=C/Nc2ccc(S(=O)(=O)Nc3onc(C)c3C)cc2)cc1", "assignedLabel": "N"}
{"molecule": "CC1C(=O)NC(=O)C1c1ccccc1 (centres undefined)", "assignedLabel": "N"}
{"molecule": "COc1cc(/C=N/NC(=O)c2cc(-c3ccccc3C)nc3ccccc23)cc(OC)c1O", "assignedLabel": "N"}
{"molecule": "S=C1SCN(CCN2CCOCC2)CN1Cc1ccccc1", "assignedLabel": "N"}
{"molecule": "CN1CCN(C2Cc3ccc(Cl)cc3Sc3ccc(F)cc32)CC1 (centres undefined)", "assignedLabel": "Y"}
{"molecule": "Cc1onc(-c2ccc(Cl)cc2)c1-c1ccnn1S(=O)(=O)c1ccc(Cl)cc1", "assignedLabel": "N"}
{"molecule": "Cc1ccc(S(=O)(=O)N2CCN(C(=O)Cn3c(=O)cnc4ccccc43)CC2)c(C)c1", "assignedLabel": "N"}
{"molecule": "Cc1ccc(C(=O)NCCNC(=O)c2cnccn2)cc1", "assignedLabel": "N"}
{"molecule": "Cc1c(CNCCc2ccccc2)c(C(=O)O)c(C)n1-c1ccccc1", "assignedLabel": "N"}
{"molecule": "COc1ccc(Cl)cc1NC(=O)CN(C)C(=O)c1ccc2n[nH]nc2c1", "assignedLabel": "N"}
{"molecule": "CCN(CC)S(=O)(=O)c1ccc(Cl)c(NC(=O)c2ccncc2)c1", "assignedLabel": "N"}
{"molecule": "COc1ccc(Cl)cc1NC(=O)CN(C)C(=O)c1cc2ccccc2cc1OC", "assignedLabel": "N"}
{"molecule": "COc1cc(N2C(=O)CC3(CCCC3)CC2=O)cc(OC)c1OC", "assignedLabel": "N"}

* * *

biological target: Protein Mdm4 (Homo sapiens) + E3 ubiquitin-protein ligase Mdm2 (Homo sapiens) (UniProt O15151+Q00987); test: inhibitors of human Mdm2-MdmX association, primary screen, cell-based, luminescence, split luciferase, SaOS-2, uHTS (AID 485346); settings: SaOS-2 split-luciferase Mdm2/MdmX complementation, at 8 µM, hits give high values
The campaign covered roughly 330,000 compounds. About 10,000 (3%) were called active. The sample as a whole holds a higher share of actives than the screen did.
Quick rule: inhibition of at least 10% means True, below that means False.

{"compound": "COc1cc2c(cc1OC)CN(C(=O)c1ccc(S(=O)(=O)N3CCCCCC3)cc1)CC2", "assignedLabel": "True"}
{"compound": "Cc1cc(CNCc2c(C(=O)N(C)Cc3ccccc3)nc3ccccn23)nn1C", "assignedLabel": "True"}
{"compound": "C=CCn1c(-c2ccccc2OCC)n[nH]c1=S", "assignedLabel": "True"}
{"compound": "CCOc1ccc2c(=O)c(-c3ccc4c(c3)OCCCO4)c(C)oc2c1", "assignedLabel": "True"}
{"compound": "CN(c1ccccc1)S(=O)(=O)c1cc(C(=O)N2CCN(c3ncccn3)CC2)ccc1Cl", "assignedLabel": "True"}
{"compound": "O=C(Nc1cccc2cccnc12)c1cccc(Cl)c1", "assignedLabel": "False"}
{"compound": "CCC(C)NC(=O)c1cc(Cl)ccc1OC (centres undefined)", "assignedLabel": "False"}
{"compound": "CCC/C(O)=C1\\C(=O)CC(C)(C)CC1=Nc1ccccc1OC", "assignedLabel": "True"}
{"compound": "COc1ccc(NC(=O)c2ccco2)cc1NC(=O)c1ccc(C#N)cc1F", "assignedLabel": "False"}

* * *

Catalogue of inhibition values
biological target: Protein Mdm4 (Homo sapiens) + E3 ubiquitin-protein ligase Mdm2 (Homo sapiens) (UniProt O15151+Q00987); test: inhibitors of human Mdm2-MdmX association, primary screen, cell-based, luminescence, split luciferase, SaOS-2, uHTS (AID 485346); conditions: SaOS-2 split-luciferase Mdm2/MdmX complementation, at 8 µM, hits give high values
Among all 330,000 compounds or so, about 10,000 (3%) were called active. What follows is part of a selection rich in actives, with near analogues and random picks from the rest.

{"compound": "COc1cccc(/C=N/NC(=O)c2[nH]nc3c2CCc2ccccc2-3)c1O", "unitLabel": "%", "inhibition": 74.6}
{"compound": "Cc1ccc(-c2csc(-c3cc(C)on3)n2)cc1", "unitLabel": "%", "inhibition": -47.3}
{"compound": "CSc1ccc(NC(=O)N2CC(C)OC(C)C2)cc1 (stereo not given)", "unitLabel": "%", "inhibition": 15}
{"compound": "CC(C)(C)C1CCC(C(=O)Nc2cccnc2)CC1 (stereo not given)", "unitLabel": "%", "inhibition": 19}
{"compound": "COc1cc([N+](=O)[O-])ccc1NC(=O)CN1CCCC1", "unitLabel": "%", "inhibition": -4.27}

* * *

biological target: Protein Mdm4 (Homo sapiens) + E3 ubiquitin-protein ligase Mdm2 (Homo sapiens) (UniProt O15151+Q00987); assay: inhibitors of human Mdm2-MdmX association, primary screen, cell-based, luminescence, split luciferase, SaOS-2, uHTS (AID 485346); conditions: SaOS-2 split-luciferase Mdm2/MdmX complementation, at 8 µM
The whole screen tested about 330,000 compounds, of which about 10,000 (3%) were called active.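 Rule for the calls: active = inhibition of at least 50% at 8 µM in the primary screen; inactive = the rest.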 This excerpt belongs to a sample that is enriched for actives.
Outcome codes: true (1) (active), false (0) (inactive)

{"compound": "COC(=O)c1cc(NC(=O)c2nn(C)c(=O)c3ccccc23)cc(C(=O)OC)c1", "assignedLabel": "true (1)"}
{"compound": "CCN(CC)CCN(C(=O)c1ccc(S(=O)(=O)N2CCOCC2)cc1)c1nc2cc3c(cc2s1)OCCO3", "assignedLabel": "false (0)"}
{"compound": "COc1ccc(C2=Nn3c(nnc3-c3ccccc3OC)SC2)cc1OC1CCCC1", "assignedLabel": "true (1)"}
{"compound": "COc1cccc(C(=O)Nc2nc3ccc(S(C)(=O)=O)cc3s2)c1", "assignedLabel": "false (0)"}
{"compound": "CS(=O)(=O)c1ccc2nc(NC(=O)c3ccc(N4CCCC4=O)cc3)sc2c1", "assignedLabel": "true (1)"}
{"compound": "CC1CCN(C(=O)c2cccc(S(=O)(=O)N3CCCc4ccccc43)c2)CC1", "assignedLabel": "false (0)"}
{"compound": "COc1ccc(C(C#N)N2N=C(C)CC2(C)C)cc1 (stereo not drawn)", "assignedLabel": "false (0)"}
{"compound": "CC(Oc1ccc2c(-c3ccccc3)cc(=O)oc2c1)C(=O)NC(Cc1c[nH]c2ccccc12)C(=O)O (stereo not drawn)", "assignedLabel": "false (0)"}
